- System: MCF7 breast
- assay protocol: NCI-60 one-dose screen, 48 h (100 = growth as untreated, 0 = no growth, -100 = all killed)
- reported conditions: 10 µM
This is part of a sample that, as a whole, favours compounds with a hit. Of some 83,000 tested, about 20% had one in any assay.
So basically, the class depends on measured growth, and the ranges are bucket A: < 10%; bucket B: ≥ 10% and < 80%; bucket C: ≥ 80%

- compound: "O=C(CSc1ncccc1C(=O)O)Nc1ccc(Oc2ccccc2)cc1"
  system: "MCF7 breast"
  group label: "bucket C"
- compound: "Nc1nc(-c2cnccn2)nn1-c1nc2ccccc2s1"
  system: "MCF7 breast"
  group label: "bucket C"
- compound: "O=C(Nc1ccc(C23CC4CC(CC(c5ccccc5)(C4)C2)C3)cc1)c1cccs1"
  system: "MCF7 breast"
  group label: "bucket B"
- compound: "Oc1c(CN2CCN(c3ccccc3F)CC2)cc(Br)c2cccnc12"
  system: "MCF7 breast"
  group label: "bucket A"
- compound: "O=C(Cn1cc(COc2ncnc3c2cnn3-c2ccccc2)nn1)Nc1cccc2ccccc12"
  system: "MCF7 breast"
  group label: "bucket C"
- compound: "c1ccc2cc3c(Nc4ccc(N5CCOCC5)cc4)ccnc3cc2c1"
  system: "MCF7 breast"
  group label: "bucket C"
- compound: "O=C(Nc1ccc(I)cc1F)c1cc(Cl)ccc1O"
  system: "MCF7 breast"
  group label: "bucket A"
- compound: "O=Cc1c(OCc2cnnn2CC(=O)Nc2ccc(Br)cc2)ccc2ccccc12"
  system: "MCF7 breast"
  group label: "bucket C"
- compound: "COC(=O)/C(CCC=C(C)C)=C1\\[C@@H](OC(C)=O)C[C@@]2(C)[C@H]1CC(=O)N[C@H]1[C@@]3(C)CCNC(=O)[C@@H](C)[C@@H]3CC[C@@]12C"
  system: "MCF7 breast"
  group label: "bucket C"
- compound: "O=C(Nc1ccc(F)cc1F)c1cc(Br)ccc1O"
  system: "MCF7 breast"
  group label: "bucket A"
- compound: "CN1CCN(Cc2ccc(NC(=O)c3[nH]ncc3Nc3cc(OC4CCCC4)ncn3)cc2)CC1"
  system: "MCF7 breast"
  group label: "bucket B"
- compound: "COc1ccc(-n2c(C(O)c3ccccc3)n[nH]c2=S)cc1 (stereo not given)"
  system: "MCF7 breast"
  group label: "bucket C"
- compound: "O=C(Nc1ccc(N2CCNCC2)cc1)c1[nH]ncc1Nc1ncnc2sc3c(c12)CCC3"
  system: "MCF7 breast"
  group label: "bucket A"
- compound: "CC(C)[C@H](NC(=O)Cn1cc(C(=O)O)nn1)C(=O)O"
  system: "MCF7 breast"
  group label: "bucket C"
- compound: "Cn1nc(C(F)(F)F)c(-c2ccc(Cl)c(C(F)(F)F)c2)c1-c1ccc(OCc2ccc(Cl)cc2)cc1O"
  system: "MCF7 breast"
  group label: "bucket A"
- compound: "CCCCOCc1cc(CN2CCN(C)CC2)c(O)c2ncccc12"
  system: "MCF7 breast"
  group label: "bucket B"
- compound: "COc1ccc(-c2cc(=O)c3c(OC)c4ccoc4c(/C=C/C=O)c3o2)cc1"
  system: "MCF7 breast"
  group label: "bucket B"
- compound: "CN1CCN(c2nc(Nc3ccc(O)cc3)nc3ccccc23)CC1"
  system: "MCF7 breast"
  group label: "bucket B"
- compound: "O=C(NC1CCN(Cc2ccccc2)CC1)c1cc(C(=O)NC2CCN(Cc3ccccc3)CC2)cc(C(=O)NC2CCN(Cc3ccccc3)CC2)c1"
  system: "MCF7 breast"
  group label: "bucket B"
- compound: "O=C(/C=C/c1ccc(Cl)cc1)c1ccc(Nc2nc(NCCO)nc(Nc3ccc(Cl)cc3)n2)cc1"
  system: "MCF7 breast"
  group label: "bucket A"
